Molecular target: G-protein coupled receptor 151 (Homo sapiens)
Test: GPR151 activators, triplicate retest, confirmation, cell-based, PathHunter beta-arrestin, luminescence (AID 1508609)
Details: GPR151 PathHunter beta-arrestin cells, 90 min, at 11.2 µM, stronger effect = higher value, % of EA-reagent control over plate median
In all, about 6,700 compounds went through this assay and fewer than 10 were called active. Not all results are given here.
Readout: activation (%)
Field: numeric (%). Do not append units.

Inquiry: Given COc1ccc(OC)c(/C=N/n2nnnc2N)c1 , state its recorded activation.
Reply text: -0.17

Inquiry: Which activation value is on record for CCN(CC)c1nc(Nc2ccccc2)nc(Nc2ccccc2)n1 ?
Reply text: -0.22

Inquiry: Using the record for COc1ccc2c(c1)C=C(CN1CCN(CC3CCCCC3)C(CCO)C1)CO2 (stereo not drawn) , report its activation.
Reply text: 0.99

Inquiry: What does the record list as activation for Cc1ccc(/C=C2/C(=O)NC(=O)N(c3ccccc3)C2=O)cc1[N+](=O)[O-] ?
Reply text: 0

Inquiry: Which activation value belongs to O=C(CN1C(=O)S/C(=C\c2ccc(Cl)s2)C1=O)Nc1ccccc1F ?
Reply text: -1.03

Inquiry: Entry under review: COCCNc1nc2nonc2nc1N(C)Cc1ccncc1C . Reported activation?
Reply text: 1.1

Inquiry: activation for COc1cc(Nc2ccnc(Nc3ccc(N4CCOCC4)cc3)n2)cc(OC)c1OC ?
Reply text: 3.41

Inquiry: What measured activation goes with CCCCNC(=O)C1(c2ccc(OC)cc2)CCOCC1 ?
Reply text: -0.13

Inquiry: What value of activation has been recorded for this entry: CC(=O)Oc1cc2c(C(=O)NCCN3CCOCC3)c(C)oc2c2ccccc12
Reply text: -0.37

Inquiry: GET /values?readout=activation&item= CC(C)(C)NC(=O)Cc1coc2ccc3ccccc3c12
Reply text: 0.92

Inquiry: Could you tell me which activation is on file for O=C(Nc1ccc(N2CCCC2=O)cc1)c1cncc(Br)c1 ?
Reply text: 0.8

Inquiry: Returns the measured activation for the input compound. Input: COC(=O)c1c(NC(=O)Nc2ccc(Cl)c(Cl)c2)sc2c1CCCC2
Reply text: 0.7

Inquiry: Given the compound CCC1(c2ccc(Cl)cc2Cl)NC(=S)N(c2ccc(C)c(C)c2)N1 (stereo not drawn) , what is its reported activation?
Reply text: 0.75

Inquiry: Requested read-out: activation. Entry: C=CCc1ccccc1OCCN1CCNCC1
Reply text: -0.14

Inquiry: I'd like to know its activation. The compound in question is CCN(CC)C(=O)C1CCCN(c2ncc(C)c(NCc3cccc(C(F)(F)F)c3)n2)C1 (stereo not drawn)
Reply text: 1.13

Inquiry: What does the record list as activation for O=C(CC12CC3CC(CC(C3)C1)C2)Nc1ccc2oc(=O)ccc2c1 ?
Reply text: -0.22

Inquiry: Give its activation value. Item: CCOc1ccc(NC(=O)COc2cccc(C)c2C)cc1
Reply text: 0.66

Inquiry: Given the compound CC(C)(C)C1CCC(=NNC(=O)C(=O)NCCc2ccccc2)CC1 (stereo not drawn) , what is its reported activation?
Reply text: 1.36

Inquiry: Looking for the measured activation of COc1ccc(Nc2nc(-c3ccc(F)cc3)cs2)c(OC)c1 , can you help?
Reply text: -0.04

Inquiry: Bench note: what activation did COc1ccccc1C(=O)N/C(=C\c1ccc2c(c1)OCO2)C(N)=O show?
Reply text: -0.62

Inquiry: Given the entry COc1ccc(C2=NN(C(=O)c3cc(OC)c(OC)c(OC)c3)C(c3ccc(Cl)cc3)C2)cc1OC (stereo not drawn) , report its measured activation.
Reply text: 0.2

Inquiry: For the compound COc1cc(NC(=O)C2CC(c3ccccc3O)=NO2)c(OC)cc1Cl (stereo not drawn) , what activation is on record?
Reply text: 0.24

Inquiry: Given the compound CCC1=C(C)c2cc3nc(C(=O)OCc4ccccc4)c(C)c-3c(C)n2C1C (stereo not drawn) , what is its reported activation?
Reply text: -0.16

====

Target: G-protein coupled receptor 151 (Homo sapiens) (UniProt Q8TDV0)
Sequence (Q8TDV0 whole entry, looked up): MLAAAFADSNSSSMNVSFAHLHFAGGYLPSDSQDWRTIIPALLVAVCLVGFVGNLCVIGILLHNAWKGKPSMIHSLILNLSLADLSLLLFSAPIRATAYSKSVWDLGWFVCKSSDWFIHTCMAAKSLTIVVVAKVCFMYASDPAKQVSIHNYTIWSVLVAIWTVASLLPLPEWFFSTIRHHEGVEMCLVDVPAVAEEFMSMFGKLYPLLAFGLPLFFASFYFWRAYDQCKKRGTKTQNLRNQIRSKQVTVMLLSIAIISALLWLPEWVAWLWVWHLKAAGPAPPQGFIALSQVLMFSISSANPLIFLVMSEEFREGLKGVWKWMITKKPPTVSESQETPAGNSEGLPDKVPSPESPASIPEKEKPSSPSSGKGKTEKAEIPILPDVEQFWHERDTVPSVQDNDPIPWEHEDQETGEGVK
Experiment: GPR151 activators, triplicate retest, confirmation, cell-based, PathHunter beta-arrestin, luminescence (AID 1508609)
Conditions: GPR151 PathHunter beta-arrestin cells, 90 min, at 11.2 µM, stronger effect = higher value, % of EA-reagent control over plate median
The whole screen tested about 6,700 compounds, of which fewer than 10 were called active. The list is a sample of the results.
Readout: activation (%)
Response body: numeric value in %, unit text excluded.

Inquiry: # input molecule: NC(=S)N/N=C/c1ccc([N+](=O)[O-])cc1 ; wanted: its activation
Reply text: -0.11

Inquiry: Endpoint output: activation of CN1C(=O)c2ccc(N3C(=O)c4cccc([N+](=O)[O-])c4C3=O)cc2C1=O . Value?
Reply text: -0.57

Inquiry: So what does the record say about activation for O=C(/C=C/c1ccccc1)c1ccccc1O ?
Reply text: -0.11

Inquiry: Could you tell me which activation is on file for COc1ccc(-c2noc(-c3ccccc3Cl)n2)cc1 ?
Reply text: -0.15

Inquiry: # input molecule: CCNc1nc(NC(C)C)nc(OCCOC(C)=O)n1 ; wanted: its activation
Reply text: -0.68

Inquiry: Look at this molecule and give its reported activation. Cc1ccc(N2C(=O)CC(NCCN3CCOCC3)C2=O)cc1 (configuration not stated)
Reply text: 0.27

Inquiry: Reported activation, molecule O=S(=O)(NCc1csc(-c2cccnc2)n1)c1ccc2ccccc2c1 : ____
Reply text: 0.68

Inquiry: Entry O=C(Nc1ccc(NC(=O)c2cccc3c(Br)cccc23)cc1)c1ccco1 : reported activation = ?
Reply text: 1.13

Inquiry: Need activation of O=C(NCc1ccsc1)c1ccc(-n2cccc2)cc1 , thanks.
Reply text: 0.53

Inquiry: Dear colleague, I am looking for the recorded activation of the following molecule: COc1cccc(/C=C2/C(=O)NC(=O)N(c3ccccc3F)C2=O)c1
Reply text: 0.99

Inquiry: Form field: reported activation of Cc1cc(N2CCOCC2)ccc1C=C1C(=O)c2ccccc2C1=O
Reply text: -0.77

Inquiry: Any idea what its activation is? The molecule is COCCNC(=S)N1CCN(c2ccccc2OC)CC1
Reply text: 0.65

====

For each record, write down the corresponding activation.
Target: G-protein coupled receptor 151 (Homo sapiens)
Experiment: GPR151 activators, triplicate retest, confirmation, cell-based, PathHunter beta-arrestin, luminescence (AID 1508609)
Conditions: GPR151 PathHunter beta-arrestin cells, 90 min, at 11.2 µM, stronger effect = higher value, % of EA-reagent control over plate median
Out of some 6,700 compounds screened, fewer than 10 were called active. The list is a sample of the results.
Give just the number in %; leave the unit off.

Inquiry: Dear colleague, I am looking for the recorded activation of the following molecule: CCCCOC(=O)C1=C(C)NC2=C(C(=O)CCC2)C1c1cccc([N+](=O)[O-])c1 (stereo unspecified)
Reply text: -0.99

Inquiry: Item Cc1nnc(SCC(=O)NCc2ccccc2)s1 has what recorded activation?
Reply text: -1.41

Inquiry: What value of activation has been recorded for this entry: Cc1ccc(N2C(=O)CC(N3CCN(Cc4ccc(Cl)cc4)CC3)C2=O)cc1Cl (stereo unspecified)
Reply text: 0.04

Inquiry: For the molecule CO[C@@H]1COC(=O)[C@@H](C)COC(=O)[C@H](C)NC(=O)C/C=C/[C@H]1C , what activation is on record?
Reply text: 0.63

Inquiry: I am curious: what activation value has been reported for CC(C)n1c(=O)[nH]c2c(C(N)=O)nc(-c3ccc(-c4ccccc4)cc3)nc21 ?
Reply text: -0.04

Inquiry: Fill in the blank: the reported activation of COc1ccc(-c2cc(N)n(S(=O)(=O)c3ccccc3)n2)c(OC)c1 is ____.
Reply text: -0.31

Inquiry: State the recorded activation for this entry: COc1ccc(C2(NC(=O)CCn3cnc4sc(C)c(C)c4c3=O)CCCCC2)cc1
Reply text: 0.69

Inquiry: Could you share which activation value was measured for c1ccc(NCc2cccc3ccccc23)nc1 ?
Reply text: -0.81

Inquiry: Requested read-out: activation. Entry: Cc1ccc2cc(C#N)c(SCCO)nc2c1
Reply text: 0.26

Inquiry: Suppose we examine the molecule Cc1ccc(NCC(=O)N/N=C\c2ccc(I)o2)cc1 ; what activation value has been reported?
Reply text: -0.49

Inquiry: # lookup: activation of CCc1ccc(N2N=C(C)/C(=C\c3ccc(-c4ccc5c(c4)C(=O)NC5=O)o3)C2=O)cc1
Reply text: -0.14

====

What activation was measured for each of the following?
Biological target: G-protein coupled receptor 151 (Homo sapiens)
Assay: GPR151 activators, triplicate retest, confirmation, cell-based, PathHunter beta-arrestin, luminescence (AID 1508609)
Conditions: GPR151 PathHunter beta-arrestin cells, 90 min, at 11.2 µM, stronger effect = higher value, % of EA-reagent control over plate median
The whole screen tested about 6,700 compounds, of which fewer than 10 were called active. These entries were drawn from the full list.
The answer is to be given in %; state only the numeric part.

Inquiry: Field request: activation | item: Cc1cccc(-n2nc3c(c2NC(=O)CCC2CCCCC2)CS(=O)(=O)C3)c1C
Reply text: 0.42

Inquiry: Field request: activation | item: CN(Cc1ccccc1)C(=O)c1nc2ccc(-c3cn[nH]c3)cc2s1
Reply text: 0.57

Inquiry: Which measured activation value corresponds to CC(C)C(=O)NNS(=O)(=O)c1ccc([N+](=O)[O-])cc1 ?
Reply text: -0.02

Inquiry: # lookup: activation of COC(=O)Cn1ncc2c3ccccc3n(Cc3cccc(Cl)c3)c2c1=O
Reply text: 0.15

Inquiry: Field request: activation | item: Cc1nc2cc(C(=O)NCc3ccc4c(c3)OCO4)ccc2n1-c1ccc(OCc2ccccc2)cc1
Reply text: -1.41

Inquiry: Given the entry COc1ccc2nc(/C(C#N)=C\c3cc4c(cc3OC)OCO4)[nH]c2c1 , report its measured activation.
Reply text: 0.91

Inquiry: Look up activation: CCOc1cc(C2C3=C(CCCC3=O)NC3=C2C(=O)CCC3)cc(Br)c1OCC
Reply text: 0.37

Inquiry: Reported activation, compound O=C(c1cc([N+](=O)[O-])ccc1NC1CCCCC1)N1CCOCC1 : ____
Reply text: -1.3

Inquiry: Fill in the blank: the reported activation of CC(=O)Nc1ccc(NC(=O)c2ccc3nc(Br)sc3c2)cc1 is ____.
Reply text: -0.12

Inquiry: Look up activation: CC(=O)NC(CC(=O)O)c1ccc(F)cc1 (configuration not stated)
Reply text: 0.27

Inquiry: Fill blank: measured activation of the compound O=C(Cn1c(=O)n(Cc2ccccc2)c(=O)c2ccccc21)c1ccccc1 is ____.
Reply text: 1.26

Inquiry: What activation value was documented for this compound, N#Cc1ccc(N2CCN(CCCNC(=O)Nc3ccccc3)CC2)cc1 ?
Reply text: -0.19

Inquiry: Quick one: activation for O=C1NCCN(Cc2ccc(-c3ccccc3)cc2)C1CC(=O)N1CCCCC1 (configuration not stated) ?
Reply text: 0.39

Inquiry: Returns the measured activation for the input compound. Input: Cc1ccc[n+](-c2ncnc(N)c2[N+](=O)[O-])c1
Reply text: -0.67

Inquiry: Request the reported activation associated with NC(=O)C1CCN(C(=O)c2ccc(-c3ccccc3)cc2)CC1
Reply text: -1.12

Inquiry: Which value of activation has been reported for CCc1nn(CCCN2CCN(c3cccc(Cl)c3)CC2)c(=O)n1CCOc1ccccc1 in the records?
Reply text: 0.13

Inquiry: Could you tell me which activation is on file for CC(C)c1ccc(Nc2nccn3c(-c4cccc(CO)c4)cnc23)cc1 ?
Reply text: 1.58

Inquiry: What value of measured activation is listed for CC(=O)c1ccc(NC(=O)c2ccc(CN(c3ccc(C)c(C)c3)S(C)(=O)=O)cc2)cc1 ?
Reply text: -0.1

Inquiry: Looking for the measured activation of COC(=O)c1oc2ccc(Br)cc2c1NC(C)=O , can you help?
Reply text: 0.35

Inquiry: # activation lookup, item O=C(NCCO)c1cnc(NC2CCN(Cc3ccccc3)CC2)s1
Reply text: 0.92

Inquiry: # query: activation of entry Nc1cc(=O)nc(SCC(=O)Nc2nccs2)n1-c1ccc(F)cc1
Reply text: 1.67

Inquiry: # input compound: Cc1ccc(Nc2nc(-c3ccccn3)cs2)cc1C ; wanted: its activation
Reply text: -1
